Molecular target: T1, human IL-33 (R&D Systems, #3625-IL-010/CF) (human) (UniProt O95760)
T1 sequence (looked up): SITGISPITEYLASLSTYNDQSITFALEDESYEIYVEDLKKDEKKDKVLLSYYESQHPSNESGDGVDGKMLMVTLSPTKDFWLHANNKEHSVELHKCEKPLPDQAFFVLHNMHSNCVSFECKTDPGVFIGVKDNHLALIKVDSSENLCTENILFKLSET
Assay: SPR Biacore T200, 25 C
Give measured t1/2 for each item. Keep answers brief.
Respond numerically; units are min and should not be typed.

input: I have this binder here, H4H9664P (antibody, from another filing, IgG4, V domains shown) VH: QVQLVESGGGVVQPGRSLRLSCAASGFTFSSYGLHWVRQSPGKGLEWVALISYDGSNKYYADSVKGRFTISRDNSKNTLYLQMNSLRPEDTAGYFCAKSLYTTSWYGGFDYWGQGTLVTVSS VL: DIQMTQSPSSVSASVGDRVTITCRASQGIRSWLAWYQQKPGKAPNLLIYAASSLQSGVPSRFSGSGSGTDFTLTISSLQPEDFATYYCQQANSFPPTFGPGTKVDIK , and I need its recorded t1/2.
output: 26

input: Need t1/2 of H4H9663P (antibody, from another filing, IgG4, V domains shown) VH: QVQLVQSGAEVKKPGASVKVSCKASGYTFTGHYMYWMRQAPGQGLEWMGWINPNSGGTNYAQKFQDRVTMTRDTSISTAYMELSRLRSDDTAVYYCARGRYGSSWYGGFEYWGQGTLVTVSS VL: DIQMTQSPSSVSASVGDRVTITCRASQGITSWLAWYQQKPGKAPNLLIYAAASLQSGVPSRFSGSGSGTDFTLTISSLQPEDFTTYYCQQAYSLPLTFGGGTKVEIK , thanks.
output: 12

input: Query (binder): H4H9671P (antibody, from another filing, IgG4, V domains shown) VH: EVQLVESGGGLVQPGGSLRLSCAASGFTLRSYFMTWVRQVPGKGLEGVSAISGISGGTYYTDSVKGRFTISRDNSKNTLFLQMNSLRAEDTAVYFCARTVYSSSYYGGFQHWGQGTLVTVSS VL: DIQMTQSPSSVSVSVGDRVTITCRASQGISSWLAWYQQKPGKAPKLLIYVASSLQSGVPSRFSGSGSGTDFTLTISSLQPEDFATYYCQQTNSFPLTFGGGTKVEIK ; field requested: t1/2
output: 12

input: Fill in the blank: the reported t1/2 of H4H9666P (antibody, from another filing, IgG4, V domains shown) VH: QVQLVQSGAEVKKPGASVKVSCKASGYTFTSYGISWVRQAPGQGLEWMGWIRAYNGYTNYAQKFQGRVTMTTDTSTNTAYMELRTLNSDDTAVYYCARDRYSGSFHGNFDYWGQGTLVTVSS VL: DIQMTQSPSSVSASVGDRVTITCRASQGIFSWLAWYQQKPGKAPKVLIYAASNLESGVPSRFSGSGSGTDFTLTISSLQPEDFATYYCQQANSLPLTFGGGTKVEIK is ____.
output: 10

input: Dear colleague, I am looking for the recorded t1/2 of the following binder: H4H9665P (antibody, from another filing, IgG4, V domains shown) VH: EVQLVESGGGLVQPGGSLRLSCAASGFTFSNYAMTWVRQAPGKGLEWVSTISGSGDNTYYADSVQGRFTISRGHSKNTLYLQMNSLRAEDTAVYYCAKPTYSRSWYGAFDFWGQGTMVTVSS VL: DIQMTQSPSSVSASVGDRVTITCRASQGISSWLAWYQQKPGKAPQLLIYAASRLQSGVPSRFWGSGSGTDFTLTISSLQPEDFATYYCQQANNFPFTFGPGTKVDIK
output: 10

Origin of the recorded values: patent US20190092852A1
